Source: patent US20260015350A1

Biological target: KRas^G12S (Homo sapiens, UniProt P01116, G12S)
Construct: Biotinylated KRas (corresponding to amino acids 1-169, produced at Accelegan Inc.); biotin (biotinylated); purchased Accelegan Inc
Sequence (P01116 1-169 isoform P01116-2 G12S): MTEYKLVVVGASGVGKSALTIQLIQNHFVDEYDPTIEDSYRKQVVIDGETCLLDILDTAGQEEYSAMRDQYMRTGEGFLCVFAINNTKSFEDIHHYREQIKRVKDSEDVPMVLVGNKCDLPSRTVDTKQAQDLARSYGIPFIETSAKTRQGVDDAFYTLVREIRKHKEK
Test: KRas binding assay (TR-FRET tracer displacement), KRas G12S
Conditions: TR-FRET tracer displacement, KRas G12S
Provide the recorded IC50 for the entries that follow.

Worked examples, 3 molecules total:
O=C1NC(=O)C2(CCCN(c3nc(OC[C@@]45CCCN4C[C@H](F)C5)nc4c(F)c(-c5c6ccccc6cc6[nH]ncc56)ncc34)C2)N1 (stereo partly drawn) [Example 759]    7 nM
CCc1c(F)ccc2cc(O)cc(-c3ncc4c(N5C[C@@H]6C[C@H](C5)[C@H](O)C6)nc(OC[C@@]56CCCN5C[C@H](OC)C6)nc4c3F)c12 [Example 926]    < 2 nM
Oc1cc(-c2ncc3c(N4C[C@@H]5C[C@H](C4)[C@H](O)C5)nc(OC[C@@]45CCCN4C[C@H](F)C5)nc3c2F)c2cccc(F)c2c1 [Example 748]    12 nM

Okay, here is my list. What is IC50 for each of these?
1. CCc1c(F)ccc2cc(O)cc(-c3ncc4c(N5C[C@@H]6C[C@H](C5)[C@H](O)C6)nc(OCC56CCCN5CC5(CC5)C6)nc4c3F)c12 (stereo partly drawn) [Example 931]
2. Cc1cc2[nH]c(=O)[nH]c2c(-c2ncc3c(N4CCC[C@@](C)(O)C4)nc(OCC45CCCN4CCC5)nc3c2F)c1C [Example 733]
3. Cc1cc2[nH]ncc2c(-c2ncc3c(N4CCCC5(CC(O)C5)C4)nc(OCC45CCCN4CCC5)nc3c2F)c1C (stereo not drawn) [Example 727]

1: < 2 nM; 2: 1400 nM; 3: 540 nM
